assay: chemical genetic growth profiling, strain panel (AID 1159580);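 also: tested at 20 µM; growth read once vehicle control cultures reached saturation at 30 °C; lower values mean less growth of the strain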; details: S. cerevisiae deletion strains, growth OD, locus YNL197C, strain WHI3
About 2,000 (36%) of roughly 5,500 compounds were called active. Roughly 18% stayed inconclusive and do not appear here. Rule as the data show it: active = normalized growth mostly below about 0.91 (no sharp cut-off); inconclusive = no clear call, values can overlap the other calls; inactive = mostly above about 0.92. The list shows a part of the results.
Outcomes: Yes = active, No = inactive

molecule	assignedClass
CC1=C(CC(=O)O)c2cc(F)ccc2/C1=C\c1ccc(S(C)(=O)=O)cc1	No
COCCc1ccc(OCC(O)CNC(C)C)cc1 (configuration not stated)	No
CC(C)OC(=O)C(C)(C)Oc1ccc(C(=O)c2ccc(Cl)cc2)cc1	No
Nc1c(S(=O)(=O)O)cc(Nc2ccc(Nc3nc(Cl)nc(Nc4ccc(S(=O)(=O)O)cc4)n3)c(S(=O)(=O)O)c2)c2c1C(=O)c1ccccc1C2=O	No
O=C(Nc1cccc(C(=O)Nc2ccc(S(=O)(=O)O)c3cc(S(=O)(=O)O)cc(S(=O)(=O)O)c23)c1)Nc1cccc(C(=O)Nc2ccc(S(=O)(=O)O)c3cc(S(=O)(=O)O)cc(S(=O)(=O)O)c23)c1	No
C=Cc1c2[nH]c(c1C)Cc1[nH]c(c(C)c1C=C)C=C1N=C(C=c3[nH]c(c(C)c3CCC(=O)O)=C2)C(CCC(=O)O)=C1C	No
OC[C@H]1O[C@@H](n2cnc3c(Nc4ccccc4)ncnc32)C(O)[C@H]1O (some centres not stated)	No
C[N+](C)(C)CCOC(=O)CCC(=O)OCC[N+](C)(C)C	No
CN1CCc2c(cc(O)c(O)c2Cl)C(c2cccc(Cl)c2)C1 (configuration not stated)	No
CCC(NC(C)C)C(O)c1ccc(O)c(O)c1 (configuration not stated)	No
CNC(=O)OCC[N+](C)(C)C	No
Cc1nc2c([nH]1)c(=O)n(C)c(=O)n2Cc1ccco1	No
Clc1ccc(N2CCN(Cc3c[nH]c4ncccc34)CC2)cc1	No
CNCC(O)c1ccc(O)c(O)c1 (configuration not stated)	No
CN1CCc2cc(Cl)c(O)cc2[C@@H](c2ccccc2)C1	No
NCC(O)C1CCCCCCC1 (configuration not stated)	No
Cc1cccc(C2CN(C)CCc3c2cc(O)c(O)c3Cl)c1 (configuration not stated)	No
CC(=O)NCCc1ccc(O)c(O)c1	No
Nc1nc2ccc(OC(F)(F)F)cc2s1	No
CN(N=O)c1ccc(O)c(O)c1	No
CN(N=O)c1cc(O)ccc1O	No
O=C(O)C1=CCCN(CCON=C(c2ccccc2)c2ccccc2)C1	No
CCN(CC)CCCC(C)Nc1ccnc2cc(Cl)ccc12 (configuration not stated)	No
C[N+](C)(C)CCCCCCCCCC[N+](C)(C)C	No
COCc1nc2c([nH]1)c(=O)n(C)c(=O)n2CC(C)C	No
C[N+](C)(C)CCOC(N)=O	No
COc1ccc2c(c1OC)C(=O)O[C@H]2[C@@H]1c2cc3c(cc2CCN1C)OCO3	No
C=CCN1CCc2cc(O)c(O)cc2C(c2ccccc2)C1 (configuration not stated)	No
C[N+](C)(C)CCOC(=O)CBr	No
C[C@@H](NCCc1ccc(O)cc1)[C@@H](O)c1ccc(O)cc1	No
CC1(C(=O)O)C2CCC(O2)C1(C)C(=O)O (configuration not stated)	Yes
C[C@H]1O[C@@H](n2cc(F)c(=O)[nH]c2=O)[C@H](O)[C@@H]1O	No
CC(CCc1ccccc1)NC(C)C(O)c1ccc(O)cc1 (configuration not stated)	No
CC(N)C(=O)OC(C)(C)Cc1ccc(Cl)cc1 (configuration not stated)	No
O=C(O)c1nn(Cc2ccc(Cl)cc2Cl)c2ccccc12	No
COc1ccc2cc([C@H](C)C(=O)O)ccc2c1	No
Ic1ccc(N2CCN(Cc3c[nH]c4ncccc34)CC2)cc1	No
NC1CCN(O)C1=O (configuration not stated)	No
CC(C)(C)NC[C@H](O)COc1nsnc1N1CCOCC1	No
CCN(CC)CC#CCOC(=O)C(O)(c1ccccc1)C1CCCCC1 (configuration not stated)	No
C=CCN1C[C@@H](C)N([C@H](c2ccc(C(=O)N(CC)CC)cc2)c2cccc(OC)c2)C[C@@H]1C	No
CNC(=O)[C@H]1O[C@@H](n2cnc3c(N)ncnc32)C(O)[C@H]1O (some centres not stated)	No
CN1CCc2cc(O)c(O)cc2C(c2ccccc2)C1 (configuration not stated)	No
CN1CCC(=C2c3ccccc3C=Cc3ccccc32)CC1	No
CC(CCc1ccc(O)cc1)NCCc1ccc(O)c(O)c1 (configuration not stated)	No
O=c1onc2cnc3ccccc3n12	No
CCN(CC)CCCC(C)Nc1c2ccc(Cl)cc2nc2ccc(OC)cc12 (configuration not stated)	No
